biological target: Neutrophil elastase enzyme (HNE) (Homo sapiens, UniProt P08246); test: Neutrophil elastase inhibitor activity; format: biochemical; settings: read-out: Degree of HNE inhibition (Mean)
Sequence (P08246 30-267): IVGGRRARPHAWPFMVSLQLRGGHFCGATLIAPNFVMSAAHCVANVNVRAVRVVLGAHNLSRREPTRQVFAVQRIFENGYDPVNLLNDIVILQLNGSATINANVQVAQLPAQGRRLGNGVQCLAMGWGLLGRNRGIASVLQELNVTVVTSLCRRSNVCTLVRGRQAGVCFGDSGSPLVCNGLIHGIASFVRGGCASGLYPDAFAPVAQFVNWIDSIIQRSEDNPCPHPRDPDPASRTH
Outcome Measure: inhibition at 100 µM (%)
Just the number please, in %, no unit attached.

NC(=S)NNC(=O)CC1C(=O)c2ccccc2C1=O [IDC2] | 28.8
O=C(CC1C(=O)c2ccccc2C1=O)NNC(=S)N=Cc1cccc([N+](=O)[O-])c1 [IDC7] | 26.7
CC(C)(C)C(=O)Oc1ccc(S(=O)(=O)Nc2ccccc2C(=O)NCC(=O)O)cc1 [Sivelestat, reference compound] | 99.8

In plain terms, NNC(=O)CC1C(=O)c2ccccc2C1=O [IDH1] has a documented inhibition at 100 µM of 36.5
